System: LNCaP tumor-transplanted mouse
Assay: Internal radioactivity distribution using LNCaP tumor-transplanted mouse
Assay type: in vivo
Settings: 96 h after administration
assay-readout: Liver (% ID/g)

O=C(O)CC[C@H](NC(=O)N[C@@H](CCCCNC(=O)[C@H](Cc1ccc2ccccc2c1)NC(=O)[C@H]1CC[C@H](CNC(=O)CCC(C(=O)O)N2CCN(CC(=O)O)CCN(C(CCC(=O)N[C@@H](CCCCNC(=O)CCCc3ccc(I)cc3)C(=O)O)C(=O)O)CCN(CC(=O)O)CC2)CC1)C(=O)O)C(=O)O (some centres unmarked) [[^111In]In-PSMA-NAT-DA1, metal not drawn]	2.31
O=C([O-])CN(CCN(CCc1ccc(NC(=O)[C@H](CCCCNC(=O)CCC(=O)NCCCC[C@H](NC(=O)N[C@@H](CCC(=O)O)C(=O)O)C(=O)O)NC(=O)CCCc2ccc(I)cc2)cc1)CCN(CC(=O)[O-])Cc1cccc(C(=O)[O-])n1)Cc1cccc(C(=O)[O-])n1.[111In+3] [[^111In]In-Neunpa-2]	1.30
O=C([O-])CN1CCN(C(CCC(=O)NCCCC[C@H](NC(=O)N[C@@H](CCC(=O)O)C(=O)O)C(=O)O)C(=O)[O-])CCN(CC(=O)[O-])CCN(C(CCC(=O)N[C@@H](CCCCNC(=O)CCCc2ccc(I)cc2)C(=O)O)C(=O)[O-])CC1.[111In+3] (some centres unmarked) [[^111In]In-PSMA-DA1]	1.10
O=C([O-])CN(Cc1cccc(C(=O)[O-])n1)C[C@H](Cc1ccc(NC(=O)[C@H](CCCCNC(=O)CCC(=O)NCCCC[C@H](NC(=O)N[C@@H](CCC(=O)O)C(=O)O)C(=O)O)NC(=O)COCCOCCOCC(=O)N[C@@H](CCCCNC(=O)CCCc2ccc(I)cc2)C(=O)O)cc1)N(CC(=O)[O-])Cc1cccc(C(=O)[O-])n1.[111In+3] [[^111In]In-Octapa-3]	0.70
O=C([O-])CN(Cc1cccc(C(=O)[O-])n1)C[C@H](Cc1ccc(NC(=O)CCCCCNC(=O)CCC(=O)NCCCC[C@H](NC(=O)N[C@@H](CCC(=O)O)C(=O)O)C(=O)O)cc1)N(CC(=O)[O-])Cc1cccc(C(=O)[O-])n1.[111In+3] [[^111In]In-Octapa-1, reference compound]	0.08
O=C([O-])CN(Cc1cccc(C(=O)[O-])n1)C[C@H](Cc1ccc(NC(=O)[C@H](CCCCNC(=O)CCC(=O)NCCCC[C@H](NC(=O)N[C@@H](CCC(=O)O)C(=O)O)C(=O)O)NC(=O)CCCc2ccc(I)cc2)cc1)N(CC(=O)[O-])Cc1cccc(C(=O)[O-])n1.[111In+3] [[^111In]In-Octapa-2]	0.22
O=C([O-])CN1CCN(C(CCC(=O)NCCCC[C@H](NC(=O)N[C@@H](CCC(=O)O)C(=O)O)C(=O)O)C(=O)[O-])CCN(CC(=O)[O-])CCN(C(CCC(=O)Nc2ccccc2)C(=O)[O-])CC1.[111In+3] (some centres unmarked) [[^111In]In-PSMA-DB, reference compound]	1.59
O=C([O-])CN(CCN(CCc1ccc(NC(=O)CCCCCNC(=O)CCC(=O)NCCCC[C@H](NC(=O)N[C@@H](CCC(=O)O)C(=O)O)C(=O)O)cc1)CCN(CC(=O)[O-])Cc1cccc(C(=O)[O-])n1)Cc1cccc(C(=O)[O-])n1.[111In+3] [[^111In]In-Neunpa-1, reference compound]	0.77

###

System: LNCaP tumor-transplanted mouse
Assay: Internal radioactivity distribution using LNCaP tumor-transplanted mouse
Type: in vivo
Conditions: 192 h after administration
Below, each of the compounds is paired with its reported Brain value.
assay-readout: Brain (% ID/g)

O=C([O-])CN(Cc1cccc(C(=O)[O-])n1)C[C@H](Cc1ccc(NC(=O)[C@H](CCCCNC(=O)CCC(=O)NCCCC[C@H](NC(=O)N[C@@H](CCC(=O)O)C(=O)O)C(=O)O)NC(=O)COCCOCCOCC(=O)N[C@@H](CCCCNC(=O)CCCc2ccc(I)cc2)C(=O)O)cc1)N(CC(=O)[O-])Cc1cccc(C(=O)[O-])n1.[111In+3] [[^111In]In-Octapa-3]	0.02
O=C([O-])CN(CCN(CCc1ccc(NC(=O)CCCCCNC(=O)CCC(=O)NCCCC[C@H](NC(=O)N[C@@H](CCC(=O)O)C(=O)O)C(=O)O)cc1)CCN(CC(=O)[O-])Cc1cccc(C(=O)[O-])n1)Cc1cccc(C(=O)[O-])n1.[111In+3] [[^111In]In-Neunpa-1, reference compound]	0.03
O=C([O-])CN(Cc1cccc(C(=O)[O-])n1)C[C@H](Cc1ccc(NC(=O)[C@H](CCCCNC(=O)CCC(=O)NCCCC[C@H](NC(=O)N[C@@H](CCC(=O)O)C(=O)O)C(=O)O)NC(=O)CCCc2ccc(I)cc2)cc1)N(CC(=O)[O-])Cc1cccc(C(=O)[O-])n1.[111In+3] [[^111In]In-Octapa-2]	0.01

###

Tested on: LNCaP tumor-transplanted mouse
Assay: Internal radioactivity distribution using LNCaP tumor-transplanted mouse
Type: in vivo
Details: 192 h after administration
Below, each of the compounds is paired with its reported Blood value.
assay-readout: Blood (% ID/g)

O=C([O-])CN(Cc1cccc(C(=O)[O-])n1)C[C@H](Cc1ccc(NC(=O)CCCCCNC(=O)CCC(=O)NCCCC[C@H](NC(=O)N[C@@H](CCC(=O)O)C(=O)O)C(=O)O)cc1)N(CC(=O)[O-])Cc1cccc(C(=O)[O-])n1.[111In+3] [[^111In]In-Octapa-1, reference compound]	0.00
O=C([O-])CN(CCN(CCc1ccc(NC(=O)CCCCCNC(=O)CCC(=O)NCCCC[C@H](NC(=O)N[C@@H](CCC(=O)O)C(=O)O)C(=O)O)cc1)CCN(CC(=O)[O-])Cc1cccc(C(=O)[O-])n1)Cc1cccc(C(=O)[O-])n1.[111In+3] [[^111In]In-Neunpa-1, reference compound]	0.01
O=C([O-])CN(CCN(CCc1ccc(NC(=O)[C@H](CCCCNC(=O)CCC(=O)NCCCC[C@H](NC(=O)N[C@@H](CCC(=O)O)C(=O)O)C(=O)O)NC(=O)CCCc2ccc(I)cc2)cc1)CCN(CC(=O)[O-])Cc1cccc(C(=O)[O-])n1)Cc1cccc(C(=O)[O-])n1.[111In+3] [[^111In]In-Neunpa-2]	0.02
O=C(O)CC[C@H](NC(=O)N[C@@H](CCCCNC(=O)[C@H](Cc1ccc2ccccc2c1)NC(=O)[C@H]1CC[C@H](CNC(=O)CCC(C(=O)O)N2CCN(CC(=O)O)CCN(C(CCC(=O)N[C@@H](CCCCNC(=O)CCCc3ccc(I)cc3)C(=O)O)C(=O)O)CCN(CC(=O)O)CC2)CC1)C(=O)O)C(=O)O (some centres unmarked) [[^111In]In-PSMA-NAT-DA1, metal not drawn]	2.47
O=C([O-])CN1CCN(C(CCC(=O)NCCCC[C@H](NC(=O)N[C@@H](CCC(=O)O)C(=O)O)C(=O)O)C(=O)[O-])CCN(CC(=O)[O-])CCN(C(CCC(=O)N[C@@H](CCCCNC(=O)CCCc2ccc(I)cc2)C(=O)O)C(=O)[O-])CC1.[111In+3] (some centres unmarked) [[^111In]In-PSMA-DA1]	0.16

###

Tested on: LNCaP tumor-transplanted mouse
Experiment: Internal radioactivity distribution using LNCaP tumor-transplanted mouse
Assay type: in vivo
Conditions: 96 h after administration
Below, each of the compounds is paired with its reported Muscle value.
assay-readout: Muscle (% ID/g)

O=C([O-])CN(Cc1cccc(C(=O)[O-])n1)C[C@H](Cc1ccc(NC(=O)CCCCCNC(=O)CCC(=O)NCCCC[C@H](NC(=O)N[C@@H](CCC(=O)O)C(=O)O)C(=O)O)cc1)N(CC(=O)[O-])Cc1cccc(C(=O)[O-])n1.[111In+3] [[^111In]In-Octapa-1, reference compound]	0.03
O=C(O)CC[C@H](NC(=O)N[C@@H](CCCCNC(=O)[C@H](Cc1ccc2ccccc2c1)NC(=O)[C@H]1CC[C@H](CNC(=O)CCC(C(=O)O)N2CCN(CC(=O)O)CCN(C(CCC(=O)N[C@@H](CCCCNC(=O)CCCc3ccc(I)cc3)C(=O)O)C(=O)O)CCN(CC(=O)O)CC2)CC1)C(=O)O)C(=O)O (stereo partly shown) [[^111In]In-PSMA-NAT-DA1, metal not drawn]	0.59
O=C([O-])CN(CCN(CCc1ccc(NC(=O)CCCCCNC(=O)CCC(=O)NCCCC[C@H](NC(=O)N[C@@H](CCC(=O)O)C(=O)O)C(=O)O)cc1)CCN(CC(=O)[O-])Cc1cccc(C(=O)[O-])n1)Cc1cccc(C(=O)[O-])n1.[111In+3] [[^111In]In-Neunpa-1, reference compound]	0.09
O=C([O-])CN(Cc1cccc(C(=O)[O-])n1)C[C@H](Cc1ccc(NC(=O)[C@H](CCCCNC(=O)CCC(=O)NCCCC[C@H](NC(=O)N[C@@H](CCC(=O)O)C(=O)O)C(=O)O)NC(=O)COCCOCCOCC(=O)N[C@@H](CCCCNC(=O)CCCc2ccc(I)cc2)C(=O)O)cc1)N(CC(=O)[O-])Cc1cccc(C(=O)[O-])n1.[111In+3] [[^111In]In-Octapa-3]	0.08
